Data provenance: patent US10519152B2

Molecular target: Estrogen Receptor (ERα) in MCF-7 human ductal carcinoma breast cell line (Homo sapiens, UniProt P03372)
Construct: endogenous in cells; host or cells: MCF-7
Assay: MCF-7 ER degradation assay (cell based immuno-fluorescence)
Details: MCF-7 cells, 0.3 μM; ER degradation by fulvestrant at 0.3 μM is defined as 100%
observed property: ER degradation ≥ 90% at 0.3 μM

Cc1ncsc1-c1ccc(CNC(=O)[C@@H]2C[C@@H](O)CN2C(=O)[C@@H](NC(=O)COCc2cccc(CCCOc3cc(F)c([C@@H]4c5[nH]c6ccccc6c5C[C@@H](C)N4CC(C)(C)F)c(F)c3)c2)C(C)(C)C)cc1 : ••
Cc1ncsc1-c1ccc(CNC(=O)[C@@H]2C[C@@H](O)CN2C(=O)[C@@H](NC(=O)COc2ccc(OCCNC(=O)/C=C/c3cc(F)c([C@@H]4c5[nH]c6ccccc6c5C[C@@H](C)N4CC(C)(C)F)c(F)c3)cc2)C(C)(C)C)cc1 : ••
Cc1ncsc1-c1ccc(CNC(=O)[C@@H]2C[C@@H](O)CN2C(=O)[C@@H](NC(=O)COCCCCOCCCOc2cc(F)c([C@@H]3c4[nH]c5ccccc5c4C[C@@H](C)N3CC(C)(C)F)c(F)c2)C(C)(C)C)cc1 : •
Cc1ncsc1-c1ccc(CNC(=O)[C@@H]2C[C@@H](O)CN2C(=O)[C@@H](NC(=O)COCC/C=C/CCOc2cc(F)c([C@@H]3c4[nH]c5ccccc5c4C[C@@H](C)N3CC(C)(C)F)c(F)c2)C(C)(C)C)cc1 : •

====

Target: recombinant human Estrogen Receptor alpha ligand binding domain, residues 307-554 (ER alpha-LBD (GST)) (Homo sapiens, UniProt P03372)
Sequence (P03372 307-554): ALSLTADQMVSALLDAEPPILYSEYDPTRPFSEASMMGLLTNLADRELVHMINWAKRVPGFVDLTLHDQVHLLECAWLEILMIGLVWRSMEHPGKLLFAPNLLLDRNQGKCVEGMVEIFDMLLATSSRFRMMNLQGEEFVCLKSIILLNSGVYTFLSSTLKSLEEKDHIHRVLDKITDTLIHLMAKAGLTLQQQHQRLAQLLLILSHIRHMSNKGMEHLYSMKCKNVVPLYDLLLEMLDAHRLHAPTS
Assay: ERα binding assay (LanthaScreen TR-FRET competition)
Details: TR-FRET competition with Fluormone ES2 tracer, 4 hours at room temperature; single experiment or average of two or more
observed property: IC50

Cc1ncsc1-c1ccc(CNC(=O)[C@@H]2C[C@@H](O)CN2C(=O)[C@@H](NC(=O)COCCOCCOc2cc(F)c([C@@H]3c4[nH]c5ccccc5c4C[C@@H](C)N3CC(C)(C)F)c(F)c2)C(C)(C)C)cc1 : 0.7 nM
Cc1ncsc1-c1ccc(CNC(=O)[C@@H]2C[C@@H](O)CN2C(=O)[C@@H](NC(=O)COCCOCCOCCNC(=O)c2cc(F)c([C@@H]3c4[nH]c5ccccc5c4C[C@@H](C)N3CC(C)(C)F)c(F)c2)C(C)(C)C)cc1 : 1.3 nM
Cc1ncsc1-c1ccc(CNC(=O)[C@@H]2C[C@@H](O)CN2C(=O)[C@@H](NC(=O)COCCCC2CN(CCOc3cc(F)c([C@@H]4c5[nH]c6ccccc6c5C[C@@H](C)N4CC(C)(C)F)c(F)c3)C2)C(C)(C)C)cc1 : 0.7 nM
Cc1ncsc1-c1ccc(CNC(=O)[C@@H]2C[C@@H](O)CN2C(=O)[C@@H](NC(=O)COCCCCCOc2cc(F)c([C@@H]3c4[nH]c5ccccc5c4C[C@@H](C)N3CC(C)(C)F)c(F)c2)C(C)(C)C)cc1 : 0.6 nM
